Target: hITK enzyme (FLAG-tagged full-length hITK) (Homo sapiens, UniProt Q08881)
Construct: strongly expressing FLAG-tagged full-length hITK in Sf9 cells; FLAG; made in house; host or cells: Sf9 insect cells (ITK); Escherichia coli (GST-SLP76 substrate)
Sequence (Q08881 whole entry): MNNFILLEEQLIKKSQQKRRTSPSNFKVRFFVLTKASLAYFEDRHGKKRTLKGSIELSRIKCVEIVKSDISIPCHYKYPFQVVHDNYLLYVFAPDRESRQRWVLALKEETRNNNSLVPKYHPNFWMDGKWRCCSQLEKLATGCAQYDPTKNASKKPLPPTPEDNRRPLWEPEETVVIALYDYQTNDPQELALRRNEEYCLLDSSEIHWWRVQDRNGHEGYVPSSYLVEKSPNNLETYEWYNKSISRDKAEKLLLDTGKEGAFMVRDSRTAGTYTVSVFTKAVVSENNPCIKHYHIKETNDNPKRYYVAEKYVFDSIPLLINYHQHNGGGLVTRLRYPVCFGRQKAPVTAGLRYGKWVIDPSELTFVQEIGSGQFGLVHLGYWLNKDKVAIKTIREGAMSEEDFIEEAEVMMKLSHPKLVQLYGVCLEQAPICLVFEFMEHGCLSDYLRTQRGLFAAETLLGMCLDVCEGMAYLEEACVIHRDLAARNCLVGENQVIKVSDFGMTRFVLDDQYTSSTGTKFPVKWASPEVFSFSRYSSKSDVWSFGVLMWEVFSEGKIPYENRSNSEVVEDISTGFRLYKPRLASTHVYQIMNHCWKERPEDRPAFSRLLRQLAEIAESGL
Assay: ITK inhibitory activity (HTRF kinase assay, biotinylated GST-SLP76 substrate)
Format: biochemical
Details: IC50 calculated from the 2 test compound concentrations sandwiching 50% ITK inhibitory rate
Experimental: (1) Preparation of hITK Enzyme hITK enzyme was prepared by strongly expressing FLAG-tagged full-length hITK in Sf9 cells, and purifying same by anti-FLAG antibody column. (2) Preparation of biotinylated GST-SLP76 […] The Ratio (fluorescence intensity at 665 nm/fluorescence intensity at 620 nm×10000) of each test compound was calculated from the measured fluorescence intensity. […]
TEST_READOUT: IC50 (nM)

Worked cases, IC50 given:
CCC(=O)Nc1ccc2cc(-c3n[nH]c4c3CCC(C)(C)C4)[nH]c2c1 | 201
CCC(=O)N(C)c1ccc2cc(-c3n[nH]c4c3CC(OC)CC4)[nH]c2c1 (stereo not shown) | 131
CN(C(=O)C(C)(C)O)c1ccc2cc(-c3n[nH]c4c3CCC(C)(C)C4)[nH]c2c1 | 8

a: CCN(CC)C(=O)c1ccc2[nH]c(-c3n[nH]c4c3CCC(C)(C)C4)cc2c1
b: CN(C(=O)[C@H]1CCCO1)c1ccc2cc(-c3n[nH]c4c3CCC(C)(C)C4)[nH]c2c1
**Query** Which shows the larger IC50 value: a or b ? When you have decided, please share the label of that item.
**Result** a
(a: 80 nM, b: 2 nM)

a: CCC(=O)Nc1ccc2[nH]c(-c3n[nH]c4c3CCC(C)(C)C4)cc2c1
b: CCC(OC)C(=O)N(C)c1ccc2cc(-c3n[nH]c4c3CCC(C)(C)C4)[nH]c2c1 (stereo not shown)
c: CN(C(=O)c1ccccc1)c1ccc2[nH]c(-c3n[nH]c4c3CCC(C)(C)C4)cc2c1
d: CN(C(=O)CN1CCC[C@H](O)C1)c1ccc2cc(-c3n[nH]c4c3CCC(C)(C)C4)[nH]c2c1
**Query** # sort list by recorded IC50, greatest to least Return the labels ranked in the requested order, please.
**Result** c, a, d, b

I: COC[C@H]1CCC(=O)N1CC(=O)N(C)c1ccc2cc(-c3n[nH]c4c3CCC(C)(C)C4)[nH]c2c1
II: CC1(C)CCc2c(-c3cc4ccc(N(CCO)C(=O)[C@H]5CC[C@H](O)CC5)cc4[nH]3)n[nH]c2C1
**Query** Which shows the larger IC50 value: I or II ? When you have decided, please share the label of that item.
**Result** II
(II: 16 nM, I: 4 nM)

a: CCN(C(=O)CN1CCCCCC1=O)c1ccc2cc(-c3n[nH]c4c3CCC(C)(C)C4)[nH]c2c1
b: CC1(C)CCc2c(-c3cc4ccc(N(CCO)C(=O)C5CCOCC5)cc4[nH]3)n[nH]c2C1
**Query** Dear colleague, could you let me know whether a or b has the lower recorded IC50? Thanks. When you have decided, please share the label of that item.
**Result** a

* * *

Biological target: hITK enzyme (FLAG-tagged full-length hITK) (Homo sapiens)
Construct: strongly expressing FLAG-tagged full-length hITK in Sf9 cells; FLAG; made in house; host or cells: Sf9 insect cells (ITK); Escherichia coli (GST-SLP76 substrate)
Assay: ITK inhibitory activity (HTRF kinase assay, biotinylated GST-SLP76 substrate)
Type: biochemical
Conditions: IC50 calculated from the 2 test compound concentrations sandwiching 50% ITK inhibitory rate
Experimental: (1) Preparation of hITK Enzyme hITK enzyme was prepared by strongly expressing FLAG-tagged full-length hITK in Sf9 cells, and purifying same by anti-FLAG antibody column. (2) Preparation of biotinylated GST-SLP76 […] The Ratio (fluorescence intensity at 665 nm/fluorescence intensity at 620 nm×10000) of each test compound was calculated from the measured fluorescence intensity. […]
pIC50: −log10 of the molar value.
TEST_READOUT: pIC50

Worked cases, pIC50 given:
CC[C@@H](C(=O)N(C)c1ccc2cc(-c3n[nH]c4c3CCC(C)(C)C4)[nH]c2c1)N1CCOCC1 | 8.40
CC(C)OCC(=O)N(C)c1ccc2cc(-c3n[nH]c4c3CCCC4)[nH]c2c1 | 7.68

I: COc1nnc(NC(=O)c2ccc3[nH]c(-c4n[nH]c5c4CCC(C)(C)C5)cc3c2)s1
II: CN(CC(=O)O)C(=O)c1ccc2[nH]c(-c3n[nH]c4c3CCC(C)(C)C4)cc2c1
III: COCCC(=O)N(C)c1ccc2cc(-c3n[nH]c4c3CCC(C)(C)C4)[nH]c2c1
IV: CN(C(=O)CN1CC(C)(C)OCC1=O)c1ccc2cc(-c3n[nH]c4c3CCC(C)(C)C4)[nH]c2c1
V: Cn1cccc1CNC(=O)c1ccc2[nH]c(-c3n[nH]c4c3CCC(C)(C)C4)cc2c1
**Query** List the 5 entries from lowest pIC50 to highest pIC50 value. Return the labels ranked in the requested order, please.
**Result** I, V, II, III, IV
(I: 6.61, V: 7.34, II: 7.57, III: 8.40, IV: 9.00)

* * *

target: hITK enzyme (FLAG-tagged full-length hITK) (Homo sapiens, UniProt Q08881); construct: strongly expressing FLAG-tagged full-length hITK in Sf9 cells; FLAG; made in house; host or cells: Sf9 insect cells (ITK); Escherichia coli (GST-SLP76 substrate); assay: ITK inhibitory activity (HTRF kinase assay, biotinylated GST-SLP76 substrate); format: biochemical; details: IC50 calculated from the 2 test compound concentrations sandwiching 50% ITK inhibitory rate
TEST_READOUT: IC50 (nM)

Worked cases, IC50 given:
COCCNC(=O)c1ccc2[nH]c(-c3n[nH]c4c3CCC(C)(C)C4)cc2c1 | 47
COCCN(C(=O)CN1CCC(C)(C)C1=O)c1ccc2cc(-c3n[nH]c4c3CCC(C)(C)C4)[nH]c2c1 | 2
CN(C(=O)CN1CC(C)(C)CCC1=O)c1ccc2cc(-c3n[nH]c4c3CCC(C)(C)C4)[nH]c2c1 | 2
CCCC(=O)N(C)c1ccc2cc(-c3n[nH]c4c3CCC(C)(C)C4)[nH]c2c1 | 5
CCC(=O)N(C)c1ccc2cc(-c3n[nH]c4c3CCC(C)C4)[nH]c2c1 (stereo not shown) | 9

P: CC1(C)CCc2c(-c3cc4cc(C(N)=O)ccc4[nH]3)n[nH]c2C1
Q: CC1(C)CCc2c(-c3cc4ccc(N(CCO)C(=O)CC5CCCCC5)cc4[nH]3)n[nH]c2C1
R: CC1CCc2c(-c3cc4ccc(N(C)C(=O)c5ccccc5)cc4[nH]3)n[nH]c2C1 (stereo not shown)
S: CN(C(=O)CC1CCOCC1)c1ccc2cc(-c3n[nH]c4c3CCC(C)(C)C4)[nH]c2c1
**Query** # sort list by recorded IC50, greatest to least Return the labels ranked in the requested order, please.
**Result** P, R, Q, S
(P: 48 nM, R: 29 nM, Q: 8 nM, S: 4 nM)

* * *

target: hITK enzyme (FLAG-tagged full-length hITK) (Homo sapiens); construct: strongly expressing FLAG-tagged full-length hITK in Sf9 cells; FLAG; made in house; host or cells: Sf9 insect cells (ITK); Escherichia coli (GST-SLP76 substrate); test: ITK inhibitory activity (HTRF kinase assay, biotinylated GST-SLP76 substrate); type: biochemical; settings: IC50 calculated from the 2 test compound concentrations sandwiching 50% ITK inhibitory rate
TEST_READOUT: IC50 (nM)

Worked cases, IC50 given:
C[C@@H](C(=O)Nc1ccc2cc(-c3n[nH]c4c3CCC(C)(C)C4)[nH]c2c1)N1CCOCC1 | 110
CCN(C(C)=O)c1ccc2cc(-c3n[nH]c4c3CCC(C)(C)C4)[nH]c2c1 | 5
CO[C@H]1CN(CC(=O)N(C)c2ccc3cc(-c4n[nH]c5c4CCC(C)(C)C5)[nH]c3c2)C[C@H]1OC | 9
CC(C)C(=O)N(C)CC(=O)N(C)c1ccc2cc(-c3n[nH]c4c3CCC(C)(C)C4)[nH]c2c1 | 2
CC(C)OC(CO)C(=O)N(C)c1ccc2cc(-c3n[nH]c4c3CCC(C)(C)C4)[nH]c2c1 (stereo not shown) | 7
CC1OCCN(CC(=O)N(C)c2ccc3cc(-c4n[nH]c5c4CCC(C)(C)C5)[nH]c3c2)C1=O (stereo not shown) | 1
CC1CCCC(=O)N1CC(=O)N(C)c1ccc2cc(-c3n[nH]c4c3CCC(C)(C)C4)[nH]c2c1 (stereo not shown) | 2
CN(C(=O)COc1ccccc1)c1ccc2cc(-c3n[nH]c4c3CCCC4)[nH]c2c1 | 12

a: CN(C)CCNC(=O)c1ccc2[nH]c(-c3n[nH]c4c3CCC(C)(C)C4)cc2c1
b: CC(C(=O)N(C)c1ccc2cc(-c3n[nH]c4c3CCC(C)(C)C4)[nH]c2c1)C1CCCCC1 (stereo not shown)
**Query** Which shows the larger IC50 value: a or b ? When you have decided, please share the label of that item.
**Result** a
(a: 34 nM, b: 20 nM)

Values from patent US8299070B2
